assayedTarget: GST-[T233E]SPAK kinase (Homo sapiens, UniProt Q9UEW8, T231E)
Construct: made in house; host or cells: E. coli
testSummary: SPAK kinase assay employing CATCHtide
Type: biochemical
condition: absence of wild-type MO25α
pIC50: −log10 of the molar value.
measuredEndpoint: pIC50

Cc1cc(C(C#N)c2ccc(Cl)cc2)c(Cl)cc1NC(=O)c1cc(Cl)ccc1O (stereo not shown) [ZT-1a] ... 4.39

----------
assayedTarget: human SPAK 452-547(end) (Homo sapiens)
Construct: Purified human SPAK 452-547(end)
testSummary: Fluorescence polarization, SPAK-WNK peptide interaction
condition: Lumio-Green-labelled WNK peptide 10 nM; read-out: IC50, concentration-dependent decrease in fluorescence polarization
measuredEndpoint: IC50 (µM)

Cc1cc(C(C#N)c2ccc(Cl)cc2)c(Cl)cc1NC(=O)c1cc(Cl)ccc1O (centres unmarked) ... 326
